# target_or_test_system: T1, human TIGIT-His protein (human, UniProt Q495A1 22-141)
# T1 construct: Recombinant protein; also called human TIGIT-his tag; hTIGIT-His
# T1 sequence (looked up): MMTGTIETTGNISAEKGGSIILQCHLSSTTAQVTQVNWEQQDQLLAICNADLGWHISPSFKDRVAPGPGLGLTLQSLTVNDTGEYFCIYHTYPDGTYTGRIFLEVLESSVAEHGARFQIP
# test_name: SPR (Biacore) affinity ranking, human TIGIT-His
# strict inequality: koff < 0.0001 s⁻¹ yields satisfied, everything else yields not satisfied

In: API: query returns whether the binder falls strictly under 0.0001 s⁻¹ in koff. Query: 76D12B10-Hu09 (antibody, V domains shown, Humanized, VH.V4 + VK.V1) VH: EVQLQESGPGLVKPSETLSLTCAASGYSITSGYDWHWIRQPPGKGLEWMGFIRDSGSTVYNPSLKGRITISHDTSKNQFSLKLSSVTAADTAVYYCARGLFWYFDVWGQGTTVTVSS VL: DIQMTQSPSSLSASVGDRVTITCRTSENIFSYLAWYQQKPGKVPKLLIHNTKTLAEGVPSRFSGSGSGTDFTLTISSLQPEDVATYYCQHHYGNPLTFGQGTKLEIK
Out: not satisfied

In: Now the same for 76D12B10-Hu13 (antibody, V domains shown, Humanized, VH.V3 + VK.V2) VH: EVQLQESGPGLVKPSETLSLTCAVSGYSISSGYDWHWIRQPPGKGLEWMGFIRDSGSTVYNPSLKGRITISHDTSKNQFSLKLSSVTAADTAVYYCARGLFWYFDVWGQGTTVTVSS VL: DIQMTQSPSSLSASVGDRVTITCRTSENIFSYLAWYQQKPGKVPKLLVHNTKTLAEGVPSRFSGSGSGTDFTLTISSLQPEDVATYYCQHHYGNPLTFGQGTKLEIK
Out: not satisfied

In: Now the same for 76D12B10-Hu11 (antibody, V domains shown, Humanized, VH.V1 + VK.V2) VH: EVQLQESGPGLVKPSETLSLTCAVSGYSISSGYDWHWIRQPPGKGLEWIGFIRDSGSTVYNPSLKGRVTISHDTSKNQFSLKLSSVTAADTAVYYCARGLFWYFDVWGQGTTVTVSS VL: DIQMTQSPSSLSASVGDRVTITCRTSENIFSYLAWYQQKPGKVPKLLVHNTKTLAEGVPSRFSGSGSGTDFTLTISSLQPEDVATYYCQHHYGNPLTFGQGTKLEIK
Out: satisfied

In: Now the same for 76D12B10-Hu01 (antibody, V domains shown, Humanized, VH.V1 + VK.V0) VH: EVQLQESGPGLVKPSETLSLTCAVSGYSISSGYDWHWIRQPPGKGLEWIGFIRDSGSTVYNPSLKGRVTISHDTSKNQFSLKLSSVTAADTAVYYCARGLFWYFDVWGQGTTVTVSS VL: DIQMTQSPSSLSASVGDRVTITCRTSENIFSYLAWYQQKPGKVPKLLIYNTKTLAEGVPSRFSGSGSGTDFTLTISSLQPEDVATYYCQHHYGNPLTFGQGTKLEIK
Out: not satisfied
